- MEASURED ON: UniProt P56524
- Sequence (P56524 whole entry): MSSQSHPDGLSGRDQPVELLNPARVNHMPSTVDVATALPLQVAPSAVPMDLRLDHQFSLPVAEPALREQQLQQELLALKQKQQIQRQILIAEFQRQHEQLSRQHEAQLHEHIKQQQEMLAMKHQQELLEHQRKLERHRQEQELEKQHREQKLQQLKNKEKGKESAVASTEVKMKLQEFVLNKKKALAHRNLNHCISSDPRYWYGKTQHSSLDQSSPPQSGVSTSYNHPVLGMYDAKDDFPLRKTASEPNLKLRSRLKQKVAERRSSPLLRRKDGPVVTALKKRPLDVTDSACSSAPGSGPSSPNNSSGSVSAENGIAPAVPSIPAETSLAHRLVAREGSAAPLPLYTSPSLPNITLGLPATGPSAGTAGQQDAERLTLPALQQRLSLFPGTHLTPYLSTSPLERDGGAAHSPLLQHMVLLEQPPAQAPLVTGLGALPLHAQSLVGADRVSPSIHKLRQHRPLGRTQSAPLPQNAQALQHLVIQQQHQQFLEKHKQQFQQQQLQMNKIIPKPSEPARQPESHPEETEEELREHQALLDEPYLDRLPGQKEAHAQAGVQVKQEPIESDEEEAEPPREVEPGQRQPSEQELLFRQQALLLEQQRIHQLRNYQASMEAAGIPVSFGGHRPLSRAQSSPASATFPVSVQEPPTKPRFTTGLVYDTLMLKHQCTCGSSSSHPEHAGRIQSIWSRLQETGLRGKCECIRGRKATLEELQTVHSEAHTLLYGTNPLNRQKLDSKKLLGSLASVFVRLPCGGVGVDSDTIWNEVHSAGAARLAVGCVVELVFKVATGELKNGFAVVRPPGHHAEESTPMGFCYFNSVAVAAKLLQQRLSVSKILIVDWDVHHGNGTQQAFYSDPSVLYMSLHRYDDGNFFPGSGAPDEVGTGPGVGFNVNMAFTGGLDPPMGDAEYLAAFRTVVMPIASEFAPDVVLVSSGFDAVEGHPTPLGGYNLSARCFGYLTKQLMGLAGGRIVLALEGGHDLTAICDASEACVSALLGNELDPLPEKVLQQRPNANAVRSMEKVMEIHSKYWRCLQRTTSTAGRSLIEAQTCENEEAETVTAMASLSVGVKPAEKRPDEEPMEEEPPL
- PROTOCOL DETAILS: Inhibition of FLAG tagged full length human HDAC4 expressed in HEK293T cells using acyl-H3K9 peptide as substrate preincubated with compound for 20 mins followed by substrate addition and measured after 120 mins by HPLC analysis
METRIC NAME: IC50

Query: Would you mind telling me what IC50 value was observed for `CCCCCCCCCCCCCCCCNNC(=O)c1cccs1` ?
Reply: > 100 µM

###

- PROTOCOL DETAILS: cells
- SETUP CONDITIONS: Homo sapiens, A2780cisR
- Description: Inhibition of class I/6 HDAC (unknown origin) in cisplatin resistant human A2780 cisR cells using Boc-Lys(epsilon-Ac)-AMC as substrate preincubated with compound for 18 hrs followed by substrate addition and measured after 3 hrs by NOVOstar microplate reader analysis
METRIC NAME: IC50

Observe how each entry below is paired with its result.
CN(C)c1ccc(C(=O)N(CC(=O)NCc2ccccc2)Cc2ccc(C(=O)NNCCC(F)(F)F)cc2)cc1 0.91 µM
CN(C)c1ccc(C(=O)N(CC(=O)NCc2ccccc2)Cc2ccc(C(=O)NNCCCc3ccccc3)cc2)cc1 2.97 µM
CCCCNNC(=O)c1ccc(CN(CC(=O)NCc2ccccc2)C(=O)c2ccc(N(C)C)cc2)cc1 0.268 µM
CN(C)c1ccc(C(=O)N(CC(=O)NCc2ccccc2)Cc2ccc(C(=O)NN)cc2)cc1 37.7 µM
CN(C)c1ccc(C(=O)N(CC(=O)NCc2ccccc2)Cc2ccc(C(=O)Nc3ccccc3N)cc2)cc1 1.63 µM
CN(C)c1ccc(C(=O)N(CC(=O)NCc2ccccc2)Cc2ccc(C(=O)NNCC3CC3)cc2)cc1 0.974 µM

Provide IC50 values for the following items, in order.
1. CN(C)c1ccc(C(=O)N(CC(=O)NCc2ccccc2)Cc2ccc(C(=O)NNc3ccccc3)cc2)cc1
2. CCCCCNNC(=O)c1ccc(CN(CC(=O)NCc2ccccc2)C(=O)c2ccc(N(C)C)cc2)cc1
3. CCCNNC(=O)c1ccc(CN(CC(=O)NCc2ccccc2)C(=O)c2ccc(N(C)C)cc2)cc1
4. CC(C)CCNNC(=O)c1ccc(CN(CC(=O)NCc2ccccc2)C(=O)c2ccc(N(C)C)cc2)cc1

Reply:
36 µM
0.334 µM
0.295 µM
2.08 µM
